- TEST METHOD NOTES: qHTS assay to identify small molecule antagonists of the peroxisome proliferator-activated receptor gamma (PPARg) signaling pathway - cell viability counter screen (AID 743194); also: nearly all actives have a fitted effect of over 55% in size
- TEST CONTEXT: PPARg-bla HEK293H viability, CellTiter-Glo luminescence, 17 h, co-treated with 50 nM rosiglitazone; series mostly up to 62.6 µM
- Source text: U.S. Tox21 Program National Center for Advancing Translational Sciences [NCATS] NIH Chemical Genomics Center [NCGC] U.S. Environmental Protection Agency [EPA] National Institutes of Environmental Health Sciences [NIEHS] National Toxicology Program [NTP] U.S. Food and Drug Administration [FDA] […]
Inconclusive results are not listed. Active and inactive are the calls of the source. Calls follow the shape of the dose curve; as a rule, active = well fitted cell-killing curve with a large enough effect in the repeat runs; inconclusive = weak or mixed curves, or effect the other way; inactive = no such curve, though single readings can be large or run the other way.
Return exactly one item of active, inactive

Some solved cases for reference:
| COMPOUND | ASSIGNED CATEGORY |
| --- | --- |
| CC1(C)CCC[C@]2(C)[C@H]3CC(=O)O[C@]3(C)CC[C@@H]12 | inactive |
| O=c1[nH]c2ccccc2n1CCCN1CCN(C(c2ccccc2)c2ccccc2)CC1 | inactive |
| Cc1c(F)c(N2CCNC(C)C2)cc2c1c(=O)c(C(=O)O)cn2C1CC1 (configuration not stated) | inactive |

Query block: Please share the test call associated with `O=C(Nc1ccc2c(O)c(N=Nc3ccc(N=Nc4ccc(S(=O)(=O)O)cc4)cc3)c(S(=O)(=O)O)cc2c1)c1ccccc1` .
Result block: inactive

Query block: Item: `O=C(O)c1cc(O)c2ccccc2c1O`
Result block: active

###

- TEST METHOD NOTES: qHTS assay to identify small molecule antagonists of the estrogen related receptor signaling pathway with the pleiotropic PPARgamma coactivator (PGC) from Tox21 10K library - cell viability counter screen (AID 1224840); also: nearly all actives have a fitted effect of over 40% in size
- TEST CONTEXT: PGC/ERR reporter cells viability, CellTiter-Fluor, 17.5 h; series mostly up to 92.4 µM
Inconclusive results are not listed. Active and inactive are the calls of the source. The call rests on the fitted dose curve; in most records, active means well fitted cell-killing curve with a large enough effect in the repeat runs (not every such curve was filed as active); inconclusive means weak or mixed curves, or effect the other way; inactive means no such curve, though single readings can be large or run the other way.
Return exactly one item of 1 (active), -1 (inactive)

| MOLECULE | ASSIGNED CATEGORY |
| --- | --- |
| O=C(O)Cc1ccccc1Nc1c(Cl)cccc1Cl | -1 |
| OC/C=C/CO | -1 |
| CC(C)OC(=O)C(O)(CC(=O)O)CC(=O)O | -1 |
| CCOC(=O)Cn1cccc1-c1nc(-c2ccc(OC)cc2)c(-c2ccc(OC)cc2)s1 | -1 |
| Fc1ccc(C(c2ccc(F)cc2)N2CCNCC2)cc1 | -1 |

Query block: Please share the test call associated with `Clc1nnc(Cl)c2ccccc12` .
Result block: -1

Query block: Item: `CCC(C)[O-].CCC(C)[O-].CCOC(=O)/C=C(/C)[O-].[Al+3]`
Result block: -1

Query block: Item: `OCCN1CCN(CCCN2c3ccccc3Sc3ccc(C(F)(F)F)cc32)CC1`
Result block: 1

###

- TEST METHOD NOTES: qHTS assay for identifying genotoxic compounds that show differential cytotoxicity against isogenic chicken DT40 cell lines with known DNA damage response pathways - wild type cell line (AID 743012); also: nearly all actives have a fitted effect of over 60% in size
- TEST CONTEXT: DT40 wild type chicken cells viability, CellTiter-Glo, 40 h; series mostly up to 68.4 µM
Inconclusive results are not listed. The source made the active and inactive calls. Calls come from the whole dose curve; as a rule, active = well fitted cell-killing curve with a large enough effect in the repeat runs; inconclusive = weak or mixed curves, or effect the other way; inactive = no such curve, though single readings can be large or run the other way.
Return exactly one item of 1 = active, -1 = inactive

Some solved cases for reference:
| COMPOUND | ASSIGNED CATEGORY |
| --- | --- |
| CCCCCCCCCCOC(=O)c1ccccc1C(=O)OCCCCCCCC | -1 |
| O=C(O)CCN(C1(C(=O)NO)CCCC1)S(=O)(=O)c1ccc(Oc2ccc(F)cc2)cc1 | -1 |

Query block: Please share the test call associated with `O=C(O)c1ccc2cc(C(=O)O)ccc2c1` .
Result block: -1

Query block: Item: `CC/C=C\CCCCCO`
Result block: -1

Query block: Item: `C=CCn1c(=O)n(CC=C)c(=O)n(CC=C)c1=O`
Result block: -1

###

- TEST METHOD NOTES: qHTS assay for small molecule agonists of the antioxidant response element (ARE) signaling pathway - cell viability counter screen (AID 743203); also: nearly all actives have a fitted effect of over 55% in size
- TEST CONTEXT: ARE-bla HepG2 viability, CellTiter-Glo luminescence, 16 h; series mostly up to 73.3 µM
Inconclusive results are not listed. Calls of active or inactive are those of the source. Calls follow the shape of the full dose curve.
Return exactly one item of yes for active, no for inactive

Some solved cases for reference:
| COMPOUND | ASSIGNED CATEGORY |
| --- | --- |
| OC12N=C(c3ccccc3)SC1Cc1cc(Cl)ccc12 (centres undefined) | no |
| CCc1cccc(CC)c1NC(=O)CN(CC(=O)O)CC(=O)O | no |
| C#Cc1ccc(-c2ccccc2F)cc1 | no |
| CCN(CCN)c1cccc(C)c1 | no |
| C=CCCC(=O)/C=C/C1C(C)=CCCC1(C)C (centres undefined) | no |
| Nc1cc(Cl)c(O)c(Cl)c1 | no |

Query block: Please share the test call associated with `C#C[C@]1(O)CC[C@H]2[C@@H]3[C@H](C)CC4=C(CCC(=O)C4)[C@H]3CC[C@@]21C` .
Result block: no

Query block: Item: `C[C@H]1NCc2cc(-c3ccc4c(=O)c(C(=O)O)cn(C5CC5)c4c3OC(F)F)ccc21`
Result block: no

Query block: Item: `COc1cc2nc(N3CCN(C(=O)c4ccco4)CC3)nc(N)c2cc1OC`
Result block: no

Query block: Item: `C=C(CC)C(=O)c1ccc(OCC(=O)O)c(Cl)c1Cl`
Result block: no

Query block: Item: `CC(C)Cn1cnc2c(N)nc3ccccc3c21`
Result block: no

Query block: Item: `O=C(Oc1ccccc1)Oc1ccccc1`
Result block: no

Query block: Item: `CN(C)Cc1cc(C(C)(C)C)c(O)c(C(C)(C)C)c1`
Result block: no

Query block: Item: `CN(C)C(=O)COC(=O)Cc1ccc(OC(=O)c2ccc(N=C(N)N)cc2)cc1`
Result block: no

Query block: Item: `O=S(=O)(O)c1ccccc1/C=C/c1ccc(-c2ccc(/C=C/c3ccccc3S(=O)(=O)O)cc2)cc1`
Result block: no

Query block: Item: `CCO[Si](OCC)(OCC)OCC`
Result block: no

Query block: Item: `Cc1c(C)c2c(c(C)c1O)CC[C@@](C)(CCC[C@H](C)CCC[C@H](C)CCCC(C)C)O2`
Result block: no

Query block: Item: CCC(C)n1ncn(-c2ccc(N3CCN(c4ccc(OC[C@H]5CO[C@](Cn6cncn6)(c6ccc(Cl)cc6Cl)O5)cc4)CC3)cc2)c1=O (some centres undefined)
Result block: no

Query block: Item: `FC(F)(F)c1cccc(Cl)c1`
Result block: no

Query block: Item: `CN1CCC[C@@H]1CCO[C@](C)(c1ccccc1)c1ccc(Cl)cc1`
Result block: yes

Query block: Item: `Cc1cccc(C)c1NC(=O)c1ccc(N)cc1`
Result block: no

Query block: Item: `C=CCn1c(=O)n(CC=C)c(=O)n(CC=C)c1=O`
Result block: no

Query block: Item: `c1cnccn1`
Result block: no

Query block: Item: `O=C1CCc2cc(OCCCCc3nnnn3C3CCCCC3)ccc2N1`
Result block: no

###

- TEST METHOD NOTES: qHTS assay to identify small molecule agonists of the constitutive androstane receptor (CAR) signaling pathway - cell viability counter screen (AID 1224836); also: nearly all actives have a fitted effect of over 45% in size
- TEST CONTEXT: HepG2-CYP2B6-hCAR viability, CellTiter-Fluor, 23 h, PK11195 added to every well; series mostly up to 92.4 µM
Records with an inconclusive call do not appear. The source made the active and inactive calls. Calls follow the shape of the dose curve; as a rule, active = well fitted cell-killing curve with a large enough effect in the repeat runs; inconclusive = weak or mixed curves, or effect the other way; inactive = flat fitted curve, though single readings scatter.
Return exactly one item of 1 (yes) (active), 0 (no) (inactive)

| MOLECULE | ASSIGNED CATEGORY |
| --- | --- |
| Nc1cc(Cl)c(O)c(Cl)c1 | 0 (no) |

Here is the next item to consider.
Query block: Please share the test call associated with `COC(=O)c1ccccc1OC` .
Result block: 0 (no)

###

- MEASURED TARGET: Nuclear receptor ROR-gamma (Homo sapiens)
- TEST METHOD NOTES: qHTS assay to identify small molecule antagonists of the retinoid-related orphan receptor gamma (ROR-gamma) signaling pathway (AID 1159521; also: nearly all actives have a fitted effect of over 50% in size)
- TEST CONTEXT: Tet-on RORgamma CHO cells, RORE-luciferase, 16 h; series mostly up to 92.4 µM
Inconclusive results are not listed. Calls of active or inactive are those of the source. The call rests on the fitted dose curve; in most records, active means well fitted inhibition curve with a large enough effect in the repeat runs; inconclusive means weak or mixed curves, or effect the other way; inactive means no such curve, though single readings can be large or run the other way.
Return exactly one item of T = active, F = inactive

| MOLECULE | ASSIGNED CATEGORY |
| --- | --- |
| CCO[Si](OCC)(OCC)OCC | F |

Here is the next item to consider.
Query block: Please share the test call associated with `O=C1NC(=O)[C@@H]2CC=CC[C@H]12` .
Result block: T

###

- TEST METHOD NOTES: qHTS assay to identify small molecule agonists of the androgen receptor (AR) signaling pathway in the presence of an antagonist - cell viability counter screen (AID 1259379); also: nearly all actives have a fitted effect of over 25% in size; also: potency is read from the fitted curve at half-maximal effect
- TEST CONTEXT: MDA-kb2 viability, CellTiter-Fluor, 16 h; series mostly up to 92.4 µM
Inconclusive results are not listed. Calls of active or inactive are those of the source. Calls come from the whole dose curve; as a rule, active = well fitted cell-killing curve with a large enough effect in the repeat runs; inconclusive = weak or mixed curves, or effect the other way; inactive = flat fitted curve, though single readings scatter.
READOUT: Potency

These solved cases illustrate the format of a correct answer.
| GIVEN SMILES | Potency |
| --- | --- |
| CC(C)(C)NSc1nc2ccccc2s1 | inactive |
| Cc1cccc2cccnc12 | inactive |
| O=c1[nH]c(=O)n([C@H]2C[C@H](O)[C@@H](CO)O2)cc1F | inactive |
| CC(C)=CCNc1ncnc2c1ncn2[C@@H]1O[C@H](CO)[C@@H](O)[C@H]1O | inactive |
| O=c1oc2cc(O)ccc2c2oc3cc(O)ccc3c12 | inactive |
| NC(=O)c1cccc([N+](=O)[O-])c1 | inactive |
| O=C(c1ccc(O)c(O)c1)c1ccc(O)cc1O | 68.5 µM (active) |
| COC(=O)c1ccccc1C | inactive |
| CCCCCCCC/C=C\CCCCCCCCN | inactive |
| CCCCCc1ccc(Cl)cc1 | inactive |

Query block: Which Potency value belongs to `CC1(C)CCC[C@]2(C)[C@H]3CCO[C@]3(C)CC[C@@H]12` ?
Result block: inactive

Query block: Item: `O=C1CCc2ccc(OCCCCN3CCN(c4cccc(Cl)c4Cl)CC3)cc2N1`
Result block: 26.6 µM (active)

Query block: Item: `COc1cc(/C=C/c2ccccc2)oc(=O)c1`
Result block: inactive
